measurement target: β-TrCP1/Skp1 (Homo sapiens)
assay explanation: βTrCP ubiquitination assay (Ub assay)
Assay type: biochemical
experimental context: 10 μM compound
Procedure: βTrCP Ubiquitination Assay and Selectivity Assays 0.5 μM Peptide substrate (biotin) Master mixes were prepared in a 50 mM Herpes buffer at pH 7.5, in 75 mM NaCl and 1 mM DTT without Mg or ATP and peptides were added to a final concentration of 100 μM. Reactions were incubated at room temperature for 30 minutes and then Mg/ATP was added to the mix. Reactions were further incubated for an additional 60 minutes and then stopped by adding SDS gel loading buffer and boiled for 5 minutes. […]
Starred links: 1 amine or outer side, 2 acyl side, 3 side chain; linkers in the order of their positions; H or OH if unused. Non-standard residues stand in square brackets, D forms with d. Residues, ends and D or L forms follow the SMILES beside them. *: point of attachment. Phe(3-Cl) = N[C@@H](Cc1cccc(Cl)c1)C(=O)O; Phe(3-F) = N[C@@H](Cc1cccc(F)c1)C(=O)O; 1Nal = N[C@@H](Cc1cccc2ccccc12)C(=O)O; pS = N[C@@H](COP(=O)(O)O)C(=O)O; X2 = COc1ccc(S(=O)(=O)*)cc1OC; Suc = O=C(CCC(=O)[*:2])[*:1]; Tos = Cc1ccc(S(=O)(=O)*)cc1
result type: Ub Assay 10 μM

Worked examples, 5 molecules total:
molecule	data value
NC(=O)[C@H](CCC(=O)O)NC(=O)[C@H](Cc1cccc2ccccc12)NC(=O)[C@H](Cc1cccc(F)c1)NC(=O)CNC(=O)[C@H](CCC(=O)O)NC(=O)CCC(=O)O [UBP010, Suc-EGF(3F)1NalE-NH2] (Suc-EG[Phe(3-F)][1Nal]E-NH2)	inhibits/
Cc1ccc(S(=O)(=O)N[C@H](CC(=O)O)C(=O)N[C@@H](CCC(=O)O)C(=O)NCC(=O)N[C@@H](Cc2cccc(Cl)c2)C(=O)N[C@@H](Cc2c[nH]c3ccccc23)C(=O)N[C@@H](CCC(=O)O)C(N)=O)cc1 [UBP034, Ts-dEGF(3Cl)WE-NH2] (Tos-[dD]EG[Phe(3-Cl)]WE-NH2)	inhibits/
CC[C@H](C)[C@H](NC(=O)CNC(=O)[C@H](COP(=O)(O)O)NC(=O)[C@@H](N)CC(=O)O)C(=O)N[C@@H](Cc1ccccc1)C(=O)N[C@@H](CCC(=O)O)C(N)=O [UBP001, DpSGIFE-NH2] (H-D[pS]GIFE-NH2)	reduces/
Cc1ccc(S(=O)(=O)N[C@H](CC(=O)O)C(=O)N[C@@H](CC(=O)O)C(=O)NCC(=O)N[C@@H](Cc2cccc(F)c2)C(=O)N[C@@H](Cc2c[nH]c3ccccc23)C(=O)N[C@@H](CCC(=O)O)C(N)=O)cc1 [UBP025, Ts-dDGF(3F)WE-NH2] (Tos-[dD]DG[Phe(3-F)]WE-NH2)	inhibits/
Cc1ccc(S(=O)(=O)N[C@H](CC(=O)O)C(=O)N[C@@H](CCC(=O)O)C(=O)NCC(=O)N[C@@H](Cc2cccc(F)c2)C(=O)N[C@@H](Cc2c[nH]c3ccccc23)C(=O)N[C@@H](CC(=O)O)C(N)=O)cc1 [UBP027, Ts-dEGF(3F)WD-NH2] (Tos-[dD]EG[Phe(3-F)]WD-NH2)	inhibits/

Now look at this one.
[in] In one line, give reported Ub Assay 10 μM of the entry COc1ccc(S(=O)(=O)N[C@H](CC(=O)O)C(=O)N[C@@H](CCC(=O)O)C(=O)NCC(=O)N[C@@H](Cc2cccc(F)c2)C(=O)N[C@@H](Cc2c[nH]c3ccccc23)C(=O)N[C@@H](CCC(=O)O)C(N)=O)cc1OC [UBP029, 3,4-(MeO)2-PhSO2-dEGF(3F)WE-NH2] (X2-[dD]EG[Phe(3-F)]WE-NH2) .
[out] reduces/

* * *

measurement target: β-TrCP1/Skp1 (Homo sapiens, UniProt Q9Y297)
Sequence (Q9Y297 whole entry): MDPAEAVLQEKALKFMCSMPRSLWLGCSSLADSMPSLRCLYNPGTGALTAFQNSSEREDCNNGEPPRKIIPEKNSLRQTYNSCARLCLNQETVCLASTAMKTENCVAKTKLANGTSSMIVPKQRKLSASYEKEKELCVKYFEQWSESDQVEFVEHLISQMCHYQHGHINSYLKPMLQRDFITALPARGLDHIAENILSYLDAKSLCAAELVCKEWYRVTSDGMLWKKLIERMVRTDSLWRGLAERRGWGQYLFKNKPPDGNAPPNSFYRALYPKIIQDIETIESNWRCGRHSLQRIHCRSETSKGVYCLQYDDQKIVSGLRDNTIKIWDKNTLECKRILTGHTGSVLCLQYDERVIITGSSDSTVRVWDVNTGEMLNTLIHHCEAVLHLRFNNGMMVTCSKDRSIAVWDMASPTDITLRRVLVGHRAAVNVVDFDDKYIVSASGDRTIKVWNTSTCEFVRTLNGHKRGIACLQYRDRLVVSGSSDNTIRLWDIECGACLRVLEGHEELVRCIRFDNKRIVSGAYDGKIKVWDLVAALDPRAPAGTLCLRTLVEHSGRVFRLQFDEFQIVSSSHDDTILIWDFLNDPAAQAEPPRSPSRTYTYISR
Sequence (P63208 2-163 partner limits assumed): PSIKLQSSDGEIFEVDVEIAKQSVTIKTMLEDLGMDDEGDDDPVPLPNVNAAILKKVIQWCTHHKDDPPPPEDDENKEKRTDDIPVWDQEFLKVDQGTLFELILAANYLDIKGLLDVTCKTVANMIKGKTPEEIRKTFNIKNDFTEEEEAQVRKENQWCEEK
assay explanation: βTrCP ubiquitination assay (Ub assay)
Type: biochemical
experimental context: 100 μM compound
Starred links: 1 amine or outer side, 2 acyl side, 3 side chain; linkers in the order of their positions; H or OH if unused. Non-standard residues stand in square brackets, D forms with d. Residues, ends and D or L forms follow the SMILES beside them. *: point of attachment. 2Naphthylsulfonyl = O=S(=O)(c1ccc2ccccc2c1)*; Phe(3-Cl) = N[C@@H](Cc1cccc(Cl)c1)C(=O)O; Phe(3-F) = N[C@@H](Cc1cccc(F)c1)C(=O)O; 1Nal = N[C@@H](Cc1cccc2ccccc12)C(=O)O; X1 = CCCCOc1ccc(S(=O)(=O)*)cc1; Suc = O=C(CCC(=O)[*:2])[*:1]; Tos = Cc1ccc(S(=O)(=O)*)cc1
result type: Ub Assay 100 μM

Below, 6 compounds whose answers are already recorded.
compound	measurement target	data value
NC(=O)[C@H](CCC(=O)O)NC(=O)[C@H](Cc1ccccc1)NC(=O)[C@H](Cc1ccc(O)cc1)NC(=O)CNC(=O)[C@H](CCC(=O)O)NC(=O)CCC(=O)O [UBP007, Suc-EGYFE-NH2] (Suc-EGYFE-NH2)	β-TrCP1/Skp1 (Homo sapiens, UniProt Q9Y297)	inhibits
Cc1ccc(S(=O)(=O)N[C@H](CC(=O)O)C(=O)N[C@@H](CCC(=O)O)C(=O)NCC(=O)N[C@@H](Cc2cccc(F)c2)C(=O)N[C@@H](Cc2c[nH]c3ccccc23)C(=O)N[C@@H](CC(=O)O)C(N)=O)cc1 [UBP027, Ts-dEGF(3F)WD-NH2] (Tos-[dD]EG[Phe(3-F)]WD-NH2)	β-TrCP1/Skp1 (Homo sapiens, UniProt Q9Y297)	inhibits
Cc1ccc(S(=O)(=O)N[C@H](CC(=O)O)C(=O)N[C@@H](CCC(=O)O)C(=O)NCC(=O)N[C@@H](Cc2cccc(Cl)c2)C(=O)N[C@@H](Cc2c[nH]c3ccccc23)C(=O)N[C@@H](CCC(=O)O)C(N)=O)cc1 [UBP034, Ts-dEGF(3Cl)WE-NH2] (Tos-[dD]EG[Phe(3-Cl)]WE-NH2)	β-TrCP1/Skp1 (Homo sapiens, UniProt Q9Y297)	inhibits
NC(=O)[C@H](CCC(=O)O)NC(=O)[C@H](Cc1cccc2ccccc12)NC(=O)[C@H](Cc1cccc(F)c1)NC(=O)CNC(=O)[C@H](CCC(=O)O)NC(=O)CCC(=O)O [UBP010, Suc-EGF(3F)1NalE-NH2] (Suc-EG[Phe(3-F)][1Nal]E-NH2)	β-TrCP1/Skp1 (Homo sapiens, UniProt Q9Y297)	inhibits
NC(=O)[C@H](CCC(=O)O)NC(=O)[C@H](Cc1c[nH]c2ccccc12)NC(=O)[C@H](Cc1cccc(F)c1)NC(=O)CNC(=O)[C@H](CCC(=O)O)NC(=O)[C@@H](CC(=O)O)NS(=O)(=O)c1ccc2ccccc2c1 [UBP031, 2-NaphthylSO2-dEGF(3F)WE-NH2] (2Naphthylsulfonyl-[dD]EG[Phe(3-F)]WE-NH2)	β-TrCP1/Skp1 (Homo sapiens, UniProt Q9Y297)	inhibits
CCCCOc1ccc(S(=O)(=O)N[C@H](CC(=O)O)C(=O)N[C@@H](CCC(=O)O)C(=O)NCC(=O)N[C@@H](Cc2cccc(F)c2)C(=O)N[C@@H](Cc2c[nH]c3ccccc23)C(=O)N[C@@H](CCC(=O)O)C(N)=O)cc1 [UBP030, 4-(BuO)-PhSO2-dEGF(3F)WE-NH2] (X1-[dD]EG[Phe(3-F)]WE-NH2)	β-TrCP1/Skp1 (Homo sapiens, UniProt Q9Y297)	inhibits

Kindly review the next compound as well.
[in] Recall and state the measured Ub Assay 100 μM for NC(=O)[C@H](CCC(=O)O)NC(=O)[C@H](Cc1cccc2ccccc12)NC(=O)[C@H](Cc1ccc(O)cc1)NC(=O)CNC(=O)[C@H](CCC(=O)O)NC(=O)CCC(=O)O [UBP009, Suc-EGY1NalE-NH2] (Suc-EGY[1Nal]E-NH2) .
[out] inhibits

* * *

measurement target: FBW7/Skp1 (Homo sapiens, UniProt Q969H0)
Sequence (Q969H0 whole entry, species assumed): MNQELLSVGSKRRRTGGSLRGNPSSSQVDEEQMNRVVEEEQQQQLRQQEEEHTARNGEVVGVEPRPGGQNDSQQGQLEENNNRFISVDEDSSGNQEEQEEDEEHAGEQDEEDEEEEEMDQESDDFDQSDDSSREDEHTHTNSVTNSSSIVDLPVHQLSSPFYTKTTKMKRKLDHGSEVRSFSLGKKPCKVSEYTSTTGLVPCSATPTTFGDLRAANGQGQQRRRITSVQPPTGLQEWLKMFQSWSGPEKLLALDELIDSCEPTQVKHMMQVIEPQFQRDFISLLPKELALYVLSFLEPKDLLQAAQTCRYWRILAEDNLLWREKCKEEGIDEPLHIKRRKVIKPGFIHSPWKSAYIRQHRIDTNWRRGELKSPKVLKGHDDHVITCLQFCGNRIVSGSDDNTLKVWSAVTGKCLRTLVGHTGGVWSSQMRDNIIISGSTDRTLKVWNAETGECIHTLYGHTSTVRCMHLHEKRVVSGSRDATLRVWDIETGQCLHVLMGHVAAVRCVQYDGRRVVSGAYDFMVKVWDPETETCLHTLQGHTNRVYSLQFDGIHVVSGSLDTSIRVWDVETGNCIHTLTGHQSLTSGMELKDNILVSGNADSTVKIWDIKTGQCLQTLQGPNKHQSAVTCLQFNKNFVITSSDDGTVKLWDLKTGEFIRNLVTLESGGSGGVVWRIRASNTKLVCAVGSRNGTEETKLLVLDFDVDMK
Sequence (P63208 whole entry partner, species assumed): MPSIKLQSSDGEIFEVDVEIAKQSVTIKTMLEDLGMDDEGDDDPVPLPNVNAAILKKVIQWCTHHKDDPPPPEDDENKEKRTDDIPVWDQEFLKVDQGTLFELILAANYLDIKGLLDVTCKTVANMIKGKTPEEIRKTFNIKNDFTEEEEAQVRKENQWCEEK
Sequence (Q13616 whole entry partner, species assumed): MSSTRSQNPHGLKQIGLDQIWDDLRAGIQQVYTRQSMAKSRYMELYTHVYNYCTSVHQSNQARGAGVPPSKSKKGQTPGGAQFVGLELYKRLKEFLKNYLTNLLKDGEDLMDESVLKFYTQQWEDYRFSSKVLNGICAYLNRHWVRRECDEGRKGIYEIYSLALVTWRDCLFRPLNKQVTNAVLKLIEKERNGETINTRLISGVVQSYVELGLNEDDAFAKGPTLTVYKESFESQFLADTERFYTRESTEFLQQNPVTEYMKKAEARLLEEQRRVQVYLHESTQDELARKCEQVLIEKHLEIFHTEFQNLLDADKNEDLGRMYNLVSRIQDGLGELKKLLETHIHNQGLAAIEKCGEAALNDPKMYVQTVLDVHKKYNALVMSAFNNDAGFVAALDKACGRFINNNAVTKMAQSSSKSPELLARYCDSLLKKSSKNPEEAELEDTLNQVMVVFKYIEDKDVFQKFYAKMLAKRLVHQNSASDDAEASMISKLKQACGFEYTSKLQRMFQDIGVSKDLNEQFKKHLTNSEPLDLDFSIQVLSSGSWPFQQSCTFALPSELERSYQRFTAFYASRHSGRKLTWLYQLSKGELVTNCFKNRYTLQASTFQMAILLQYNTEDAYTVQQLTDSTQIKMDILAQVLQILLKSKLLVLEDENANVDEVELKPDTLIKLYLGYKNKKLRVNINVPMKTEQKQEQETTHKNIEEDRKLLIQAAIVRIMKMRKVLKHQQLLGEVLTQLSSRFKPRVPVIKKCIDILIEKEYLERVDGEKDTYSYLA
Sequence (P62877 whole entry partner, species assumed): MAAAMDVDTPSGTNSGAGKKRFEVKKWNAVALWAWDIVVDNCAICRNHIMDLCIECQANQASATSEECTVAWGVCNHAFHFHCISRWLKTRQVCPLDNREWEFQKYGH
assay explanation: Selectivity assay vs other E3s: Fbw7
Type: biochemical
experimental context: read-out: % Inhibition Fbw7 @ 10 μM
Starred links: 1 amine or outer side, 2 acyl side, 3 side chain; linkers in the order of their positions; H or OH if unused. Non-standard residues stand in square brackets, D forms with d. Residues, ends and D or L forms follow the SMILES beside them. *: point of attachment. Phe(4-NO2) = N[C@@H](Cc1ccc([N+](=O)[O-])cc1)C(=O)O; Phe(3-F) = N[C@@H](Cc1cccc(F)c1)C(=O)O; 1Nal = N[C@@H](Cc1cccc2ccccc12)C(=O)O; pS = N[C@@H](COP(=O)(O)O)C(=O)O; X2 = COc1ccc(S(=O)(=O)*)cc1OC; Suc = O=C(CCC(=O)[*:2])[*:1]
result type: inhibition at 10 µM (%)
Number only, in %; omit the unit.

# count of solved cases: 3
compound	u	inhibition at 10 µM
COc1ccc(S(=O)(=O)N[C@H](CC(=O)O)C(=O)N[C@@H](CCC(=O)O)C(=O)NCC(=O)N[C@@H](Cc2cccc(F)c2)C(=O)N[C@@H](Cc2c[nH]c3ccccc23)C(=O)N[C@@H](CCC(=O)O)C(N)=O)cc1OC [UBP029, 3,4-(MeO)2-PhSO2-dEGF(3F)WE-NH2] (X2-[dD]EG[Phe(3-F)]WE-NH2)	%	2
CC[C@H](C)[C@H](NC(=O)CNC(=O)[C@H](COP(=O)(O)O)NC(=O)[C@@H](N)CC(=O)O)C(=O)N[C@@H](Cc1ccccc1)C(=O)N[C@@H](CCC(=O)O)C(N)=O [UBP001, DpSGIFE-NH2] (H-D[pS]GIFE-NH2)	%	0
NC(=O)[C@H](CCC(=O)O)NC(=O)[C@H](Cc1ccc([N+](=O)[O-])cc1)NC(=O)[C@H](Cc1ccc(O)cc1)NC(=O)CNC(=O)[C@H](CCC(=O)O)NC(=O)CCC(=O)O [UBP013, Suc-EGYF(4NO2)E-NH2] (Suc-EGY[Phe(4-NO2)]E-NH2)	%	0

Now examine the next entry.
[in] State inhibition at 10 µM on FBW7/Skp1 (Homo sapiens, UniProt Q969H0). Entry: NC(=O)[C@H](CCC(=O)O)NC(=O)[C@H](Cc1cccc2ccccc12)NC(=O)[C@H](Cc1ccc([N+](=O)[O-])cc1)NC(=O)CNC(=O)[C@H](CCC(=O)O)NC(=O)CCC(=O)O [UBP011, Suc-EGF(4NO2)1NalE-NH2] (Suc-EG[Phe(4-NO2)][1Nal]E-NH2)
[out] 14
